These molecules were tested on Alpha-2C adrenergic receptor (Homo sapiens); pKi is the recorded read-out.
Sequence (P18825 whole entry): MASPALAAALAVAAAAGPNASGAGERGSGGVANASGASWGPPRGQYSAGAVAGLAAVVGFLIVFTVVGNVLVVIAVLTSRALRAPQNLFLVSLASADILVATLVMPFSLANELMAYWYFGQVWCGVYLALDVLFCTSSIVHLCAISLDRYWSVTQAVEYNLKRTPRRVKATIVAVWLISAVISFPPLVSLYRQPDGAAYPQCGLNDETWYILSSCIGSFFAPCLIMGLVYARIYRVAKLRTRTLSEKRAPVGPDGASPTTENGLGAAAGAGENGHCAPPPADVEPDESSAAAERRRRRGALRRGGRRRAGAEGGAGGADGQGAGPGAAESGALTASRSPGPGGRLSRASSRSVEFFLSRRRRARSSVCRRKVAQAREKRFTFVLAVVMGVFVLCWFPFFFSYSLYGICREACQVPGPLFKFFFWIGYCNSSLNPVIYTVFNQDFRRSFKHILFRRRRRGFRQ
pKi: −log10 of the molar value.
measured_property: pKi

molecule	measured_property	number
CO/C(O)=C1\C(C)=NC(C)=C(C(=O)NCCCCN2CCC(c3ccccc3)(c3ccccc3)CC2)C1c1ccc([N+](=O)[O-])cc1 (stereo not drawn)	pKi	6.55

(1) CO/C(O)=C1\C(C)=NC(C)=C(C(=O)NCCCN2CCC(c3ccccc3)(c3ccccc3)CC2)C1c1ccc([N+](=O)[O-])c(OC)c1 (stereo not drawn)
(2) CO/C(O)=C1\C(C)=NC(C)=C(C(=O)NCCCN2CCC(c3ccccc3)(c3ccccc3)CC2)C1c1ccc(Cl)cc1 (stereo not drawn)
1 or 2 : whose pKi is greater? # respond with the chosen item's label 1

All values here come from ChEMBL document CHEMBL1131023.
